Collected from the literature: pIC50 of various compounds toward Galectin-3 (Homo sapiens, UniProt P17931).
Sequence (P17931 whole entry): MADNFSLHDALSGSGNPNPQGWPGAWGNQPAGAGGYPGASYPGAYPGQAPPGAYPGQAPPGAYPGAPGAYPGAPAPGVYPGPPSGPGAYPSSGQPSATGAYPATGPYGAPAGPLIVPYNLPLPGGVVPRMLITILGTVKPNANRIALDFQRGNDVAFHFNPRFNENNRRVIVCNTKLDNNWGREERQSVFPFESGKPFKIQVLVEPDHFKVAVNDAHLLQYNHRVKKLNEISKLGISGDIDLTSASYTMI
Friendly reminder that pIC50 comes from taking -log10 of the concentration in mol/L.

Example entries begin here.
# COMPOUND, OBSERVATION TYPE, RECORDED VALUE
data = [
    ("CO[C@@H]1[C@@H](n2cc(-c3ccc(C)c(F)c3)nn2)[C@@H](O)[C@@H](CO)O[C@@H]1Cc1cc(C2CCCCC2)on1", "pIC50", 6.36),
    ("CO[C@@H]1[C@@H](n2cc(-c3ccc(C)c(F)c3F)nn2)[C@@H](O)[C@@H](CO)O[C@@H]1CC1=NOC2(CCCN(C(=O)OC(C)(C)C)CC2)C1 (mixture of isomers)", "pIC50", 6.80),
]

Exercise: Record lookup: for Galectin-3 (Homo sapiens, UniProt P17931), what pIC50 belongs to OC[C@H]1O[C@H](CC2CC(c3cn[nH]c3)=NO2)[C@H](O)[C@@H](n2cc(-c3cc(F)c(F)c(F)c3)nn2)[C@H]1O (stereo partly drawn) ?
Key: 6.39

Exercise: // fetch Galectin-3 (Homo sapiens, UniProt P17931) pIC50 for CC(C)(C)c1cc(C[C@H]2O[C@H](CO)[C@H](O)[C@H](n3cc(-c4cc(F)c(F)c(F)c4)nn3)[C@H]2OCC(=O)N2CC(O)C2)no1
Key: 6.89

Exercise: Checklist item: pIC50 tested on Galectin-3 (Homo sapiens, UniProt P17931), entry CO[C@@H]1[C@@H](n2cc(-c3cc(F)cc(F)c3)nn2)[C@@H](O)[C@@H](CO)O[C@H]1C(=O)N(c1cc(Br)cc(C#N)c1)[C@@H]1CCC[C@H]1O , value?
Key: 6.35

Exercise: # returns recorded pIC50 (system: Galectin-3 (Homo sapiens, UniProt P17931)) for CO[C@@H]1[C@@H](n2cc(-c3ccc(C)c(F)c3F)nn2)[C@@H](O)[C@@H](CO)O[C@@H]1CC1=NOC2(CCCCC2)C1
Key: 7.11

Exercise: Value wanted: pIC50 (Galectin-3 (Homo sapiens, UniProt P17931)) of entry CO[C@@H]1[C@@H](n2cc(-c3cc(F)c(F)c(F)c3)nn2)[C@@H](O)[C@@H](CO)O[C@H]1C(=O)N(c1cc(Cl)cc(C#N)c1)[C@H]1CC[C@@H]1O
Key: 7.10

Exercise: Form field - read-out: pIC50; system: Galectin-3 (Homo sapiens, UniProt P17931); submitted item: CO[C@@H]1[C@@H](n2cc(-c3ccc(C)c(F)c3F)nn2)[C@@H](O)[C@@H](CO)O[C@@H]1Cc1cc(C2(C)CC2)no1
Key: 7.49

====

Below: compounds with IC50 recorded for Galectin-3 (Homo sapiens) in separate published works.
Kindly provide the numeric value in nM only, without the unit symbol.

# SMILES RECORD, OBSERVATION TYPE, RECORDED VALUE
measured = [
    ("CCOC(=O)N1CCC(N2CN(C[C@H]3O[C@H](CO)[C@H](O)[C@H](n4cc(-c5cc(F)c(F)c(F)c5)nn4)[C@H]3OC)CC2=O)CC1", "IC50", 26),
    ("COc1cc(C#N)cc(N(C(=O)[C@@H]2O[C@H](CO)[C@H](O)[C@H](n3cc(-c4ccc(C#N)c(F)c4)nn3)[C@H]2OC)[C@@H]2CCC[C@H]2O)c1", "IC50", 1460),
]

Exercise: Entry under review: O=C(CO[C@@H]1[C@@H](n2cc(-c3cc(F)c(F)c(F)c3)nn2)[C@@H](O)[C@@H](CO)O[C@H]1C(=O)N(c1cc(Cl)cc(Cl)c1)[C@H]1CCCC[C@@H]1O)N1CCC(O)CC1 . Reported IC50?
Key: 12

====

Multiple publications report IC50 for UniProtKB P17931; what follows is a combined list.
Labelling: IC50 reported below 70 nM becomes 1; at or above becomes 0.

Previously resolved entries follow.
# COMPOUND, GROUP
rows = [
    ("CO[C@@H]1[C@@H](n2cc(-c3cc(F)c(F)c(F)c3)nn2)[C@@H](O)[C@@H](CO)O[C@@H]1CC1CN(C2CCOCC2)C(=O)O1 (mixture of isomers)", 0),
    ("CO[C@@H]1[C@@H](n2cc(-c3ccc(Cl)c(F)c3F)nn2)[C@@H](O)[C@@H](CO)O[C@@H]1Cc1cc(C2(O)CCCC2)on1", 0),
    ("CCCCO[C@@H]1[C@@H](n2cc(-c3cc(F)c(F)c(F)c3)nn2)[C@@H](O)[C@@H](CO)O[C@@H]1Cc1cc(C2CCN(C(=O)OC(C)(C)C)CC2)on1", 0),
    ("CO[C@@H]1[C@@H](n2cc(-c3cc(F)c(F)c(F)c3)nn2)[C@@H](O)[C@@H](CO)O[C@H]1C(=O)N(c1cc(Cl)cc(Cl)c1)[C@H]1CCCCC[C@@H]1O", 1),
    ("CO[C@@H]1[C@@H](n2cc(-c3ccc(C)c(F)c3F)nn2)[C@@H](O)[C@@H](CO)O[C@@H]1Cc1cc(C(C)(O)c2ccccc2F)on1 (some centres unmarked)", 0),
    ("CCNC(=O)O[C@@H]1[C@@H](n2cc(-c3ccc(C)c(F)c3F)nn2)[C@@H](O)[C@@H](CO)O[C@@H]1Cc1cc(C(C)(C)C)no1", 1),
    ("CO[C@@H]1[C@@H](n2cc(-c3cc(F)c(F)c(F)c3)nn2)[C@@H](O)[C@@H](CO)O[C@@H]1Cc1cc(C2CCN(C(=O)C3CCCC3)CC2)on1", 1),
    ("CO[C@@H]1[C@@H](n2cc(-c3cc(F)c(Cl)c(F)c3)nn2)[C@@H](O)[C@@H](CO)O[C@H]1C(=O)N(c1cc(Br)cc(C#N)c1)[C@H]1CC[C@@H]1O", 1),
]

Exercise: Is IC50 strictly under 70 nM for the entry CCCS(=O)(=O)N1CCC(n2cc(C[C@H]3O[C@H](CO)[C@H](O)[C@H](n4cc(-c5cc(F)c(F)c(F)c5)nn4)[C@H]3OC)nn2)CC1 ?
Key: 1

Exercise: Here's an entry: CO[C@@H]1[C@@H](n2cc(-c3cc(F)c(F)c(F)c3)nn2)[C@@H](O)[C@@H](CO)O[C@@H]1Cc1cc(C2CCNCC2)sn1 . Is its IC50 below 70 nM?
Key: 0

====

# log10(IC50) against Galectin-3 (Homo sapiens), merged from multiple literature sources
Recorded IC50 (log10, nM)

# COMPOUND, log10(IC50)
data = [
    ("CO[C@@H]1[C@@H](n2cc(-c3ccc(C)c(F)c3F)nn2)[C@@H](O)[C@@H](CO)O[C@H]1C(=O)N(c1cc(Br)cc(C#N)c1)[C@H]1CCC[C@@H]1O", 1.17),
    ("CN=S(=O)(C(C)C)N1CCC(c2cc(C[C@H]3O[C@H](CO)[C@H](O)[C@H](n4cc(-c5cc(F)c(F)c(F)c5)nn4)[C@H]3OC)no2)CC1 (mixture of isomers)", 1.99),
    ("CO[C@@H]1[C@@H](n2cc(-c3cc(F)c(F)c(F)c3)nn2)[C@@H](O)[C@@H](CO)O[C@@H]1Cc1cc(-c2ccn(C)c(=O)c2)on1", 2.41),
    ("Cc1ccc(-c2cn([C@H]3[C@@H](O)[C@@H](CO)O[C@H](Cc4cc(C(C)(C)C)no4)[C@@H]3OCc3cnco3)nn2)c(F)c1F", 2.08),
    ("CO[C@@H]1[C@@H](n2cc(-c3cc(F)c(F)c(F)c3)nn2)[C@@H](O)[C@@H](CO)O[C@H]1C(=O)N(c1ccccn1)[C@H]1CCCC[C@@H]1O", 1.04),
]

Proceeding to the next compound to report its log10(IC50).
Exercise: Report log10(IC50) for CO[C@@H]1[C@@H](n2cc(-c3ccc(Cl)c(F)c3F)nn2)[C@@H](O)[C@@H](CO)O[C@@H]1CC1=NOC2(CCOCC2)C1 please.
Key: 2.08

====

The entries below pair molecules with IC50 values for Galectin-3 (Homo sapiens), as found in several publications.
Quick note: give the figure in nM, leave out the unit.

Worked set:
# MOLECULE, IC50 (nM)
data = [
    ("CO[C@@H]1[C@@H](n2cc(-c3ccc(F)c(F)c3F)nn2)[C@@H](O)[C@@H](CO)O[C@@H]1CC1=NO[C@]2(CC[C@@H](NC(=O)OC(C)(C)C)CC2)C1", 132),
    ("CO[C@@H]1[C@@H](n2cc(-c3cc(F)c(F)c(F)c3)nn2)[C@@H](O)[C@@H](CO)O[C@@H]1C[C@H]1CC(C2CCN(S(=O)(=O)C(C)C)CC2)=NO1", 370),
    ("CO[C@@H]1[C@@H](n2cc(-c3ccc(C)c(F)c3F)nn2)[C@@H](O)[C@@H](CO)O[C@@H]1CC1=NOC2(CCC(=O)N(C)CC2)C1 (mixture of isomers)", 100),
    ("CO[C@@H]1[C@@H](n2cc(-c3ccc(Cl)c(Cl)c3)nn2)[C@@H](O)[C@@H](CO)O[C@H]1C(=O)N(c1cc(F)cc(C#N)c1)[C@H]1CCCC[C@@H]1O", 37),
]

In the following, a different molecule is considered.
Exercise: Endpoint output: IC50 of CO[C@@H]1[C@@H](n2cc(-c3ccc(Cl)c(F)c3F)nn2)[C@@H](O)[C@@H](CO)O[C@@H]1Cc1cc(C(C)(C)C)no1 . Value?
Key: 37
